- Target Of Assay: Tyrosine-protein kinase ABL1 (Homo sapiens, UniProt P00519)
- Sequence (P00519 whole entry): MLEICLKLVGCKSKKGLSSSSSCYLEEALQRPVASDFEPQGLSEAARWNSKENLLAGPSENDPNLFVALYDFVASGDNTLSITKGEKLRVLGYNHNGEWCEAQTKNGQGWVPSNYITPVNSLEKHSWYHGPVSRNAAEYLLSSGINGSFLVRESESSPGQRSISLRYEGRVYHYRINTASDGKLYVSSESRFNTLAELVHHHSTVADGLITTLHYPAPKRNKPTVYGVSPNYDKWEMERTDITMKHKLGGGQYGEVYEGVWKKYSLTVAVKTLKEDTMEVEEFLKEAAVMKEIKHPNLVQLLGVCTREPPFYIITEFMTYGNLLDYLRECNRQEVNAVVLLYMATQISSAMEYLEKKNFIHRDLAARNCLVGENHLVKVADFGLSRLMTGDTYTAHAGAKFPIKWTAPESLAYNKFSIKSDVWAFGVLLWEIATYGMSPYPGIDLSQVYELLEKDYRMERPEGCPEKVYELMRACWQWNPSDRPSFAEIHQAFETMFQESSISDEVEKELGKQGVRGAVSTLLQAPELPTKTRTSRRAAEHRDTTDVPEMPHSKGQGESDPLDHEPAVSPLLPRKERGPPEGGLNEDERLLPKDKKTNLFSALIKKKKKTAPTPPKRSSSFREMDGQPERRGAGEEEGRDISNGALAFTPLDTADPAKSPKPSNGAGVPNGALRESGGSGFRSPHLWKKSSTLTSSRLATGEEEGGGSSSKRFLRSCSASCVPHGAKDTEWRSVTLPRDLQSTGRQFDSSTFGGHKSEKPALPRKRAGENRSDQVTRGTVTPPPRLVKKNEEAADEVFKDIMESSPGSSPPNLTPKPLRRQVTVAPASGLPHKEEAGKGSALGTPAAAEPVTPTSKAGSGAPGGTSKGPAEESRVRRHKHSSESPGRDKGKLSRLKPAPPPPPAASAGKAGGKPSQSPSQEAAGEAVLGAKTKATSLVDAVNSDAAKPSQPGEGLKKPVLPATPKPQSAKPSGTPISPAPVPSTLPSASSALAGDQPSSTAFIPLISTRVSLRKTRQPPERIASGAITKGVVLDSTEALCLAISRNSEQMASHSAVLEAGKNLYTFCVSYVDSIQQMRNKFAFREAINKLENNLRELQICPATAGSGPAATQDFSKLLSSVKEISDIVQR
Measured Endpoint: IC50 (nM)
Give just the numeric value; nM need not be written.

Observed IC50 on Tyrosine-protein kinase ABL1 (Homo sapiens, UniProt P00519), entry CC(C)COC(=O)Nc1ccc(-c2cnc3c(-c4ccc(N5CCN(C)CC5)cc4)cnn3c2N)cc1 , equals 40

---

- Target Of Assay: UniProt:P07949
Measured Endpoint: IC50
Just so you know, I need the unit written after the number.

Entry CC(C)COC(=O)Nc1ccc(-c2cnc3c(-c4ccc(N5CCN(C)CC5)cc4)cnn3c2N)cc1 : IC50 on UniProt:P07949 = 4.7 µM

---

- Target Of Assay: Cyclin-dependent kinase 2/cyclin A (Homo sapiens, UniProt P24941)
- Experimental Protocol: Inhibition of CDK2/cyclinA
pIC50: −log10 of the molar value.
Measured Endpoint: pIC50

Sample CC(C)COC(=O)Nc1ccc(-c2cnc3c(-c4ccc(N5CCN(C)CC5)cc4)cnn3c2N)cc1 ; pIC50 observed: < 5.00

---

- Experimental Protocol: Oral bioavailability in rat
- Format: ADME, organism-based
- Study Conditions: in vivo
Measured Endpoint: bioavailability (%)
Give the value, in units of %, as a plain number.

Entry CC(C)COC(=O)Nc1ccc(-c2cnc3c(-c4ccc(N5CCN(C)CC5)cc4)cnn3c2N)cc1 — recorded bioavailability = 95

---

- Target Of Assay: UniProtKB Q02763
Measured Endpoint: IC50 (nM)
Give the quantity in nM, number only.

Item: CC(C)COC(=O)Nc1ccc(-c2cnc3c(-c4ccc(N5CCN(C)CC5)cc4)cnn3c2N)cc1 | System: UniProtKB Q02763 | IC50: 1000

---

Below are molecules with their IC50 as measured on Tyrosine-protein kinase Lck (Homo sapiens).
Sequence (P06239 whole entry): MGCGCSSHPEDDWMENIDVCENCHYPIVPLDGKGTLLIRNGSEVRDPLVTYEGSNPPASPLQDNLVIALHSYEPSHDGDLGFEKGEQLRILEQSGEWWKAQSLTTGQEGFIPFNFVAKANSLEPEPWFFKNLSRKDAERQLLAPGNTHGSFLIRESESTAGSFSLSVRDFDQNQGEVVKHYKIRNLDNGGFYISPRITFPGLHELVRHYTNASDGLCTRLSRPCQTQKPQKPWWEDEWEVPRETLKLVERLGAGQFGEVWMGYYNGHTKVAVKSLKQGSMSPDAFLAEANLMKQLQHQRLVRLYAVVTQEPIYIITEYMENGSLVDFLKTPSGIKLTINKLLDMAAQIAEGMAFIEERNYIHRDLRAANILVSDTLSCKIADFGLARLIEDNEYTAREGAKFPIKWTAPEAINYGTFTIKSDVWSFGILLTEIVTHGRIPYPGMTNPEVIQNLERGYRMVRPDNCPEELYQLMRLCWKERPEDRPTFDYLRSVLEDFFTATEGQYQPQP
Write the value in nM as a bare number.

Solved entries (count: 2):
Cc1cc(NC(=O)OCC(C)C)ccc1-c1cnc2c(-c3cccc(N4CCN(C)CC4)c3)cnn2c1N    23
CC(C)COC(=O)Nc1ccc(-c2cnc3c(-c4cccc(N5CCN(S(C)(=O)=O)CC5)c4)cnn3c2N)cc1    209

IC50 for CN1CCN(c2cccc(-c3cnn4c(N)c(-c5ccc(NS(=O)(=O)c6cccc(Cl)c6Cl)cc5)cnc34)c2)CC1 is 28

Field IC50 (entry COc1cc(-c2cnc3c(-c4cccc(N5CCN(C)CC5)c4)cnn3c2N)ccc1NC(=O)OCC(C)C ) reads 546

# IC50 (molecule: CN1CCN(c2ccc(-c3cnn4c(N)c(-c5cccc(O)c5)cnc34)cc2)CC1 ) is 8

---

- Target Of Assay: Tyrosine-protein kinase HCK (Homo sapiens)
- Sequence (P08631 whole entry): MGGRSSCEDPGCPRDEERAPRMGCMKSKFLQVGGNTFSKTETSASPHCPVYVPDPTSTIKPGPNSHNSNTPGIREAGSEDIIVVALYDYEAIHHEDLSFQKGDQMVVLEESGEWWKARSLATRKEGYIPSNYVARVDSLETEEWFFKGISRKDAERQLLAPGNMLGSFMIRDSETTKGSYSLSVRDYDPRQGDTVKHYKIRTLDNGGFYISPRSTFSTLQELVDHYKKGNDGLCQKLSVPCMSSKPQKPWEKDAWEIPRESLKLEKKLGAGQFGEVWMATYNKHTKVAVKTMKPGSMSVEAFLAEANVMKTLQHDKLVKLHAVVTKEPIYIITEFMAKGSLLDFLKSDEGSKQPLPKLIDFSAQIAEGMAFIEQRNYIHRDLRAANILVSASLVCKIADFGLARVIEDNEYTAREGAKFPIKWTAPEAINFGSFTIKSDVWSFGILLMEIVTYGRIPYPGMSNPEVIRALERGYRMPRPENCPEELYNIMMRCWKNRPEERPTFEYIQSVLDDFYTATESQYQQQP
Here the recorded IC50 is given for each entry.
Entry rule: numbers only, all in nM.

Worked examples, 5 molecules total:
CN1CCN(c2cccc(-c3cnn4c(N)c(-c5ccc(NC(=O)Oc6ccccc6)cc5)cnc34)c2)CC1    193
Cc1cc(NC(=O)OCC(C)C)ccc1-c1cnc2c(-c3cccc(N4CCN(C)CC4)c3)cnn2c1N    456
CC(C)COC(=O)Nc1ccc(-c2cnc3c(-c4cccc(N5CCN(C(=O)CN)CC5)c4)cnn3c2N)cc1    270
CC(C)COC(=O)Nc1ccc(-c2cnc3c(-c4cccc(N5CCN(C)CC5)c4)cnn3c2N)cc1    594
COCCN1CCN(c2ccc(-c3cnn4c(N)c(-c5ccc(NC(=O)OCC(C)C)cc5)cnc34)cc2)CC1    349

// next item, IC50 requested
Hey, Tyrosine-protein kinase HCK (Homo sapiens) data for CC(C)COC(=O)Nc1ccc(-c2cnc3c(-c4cccc(N5CCNCC5)c4)cnn3c2N)cc1 : IC50 came out at 310

---

Target chain: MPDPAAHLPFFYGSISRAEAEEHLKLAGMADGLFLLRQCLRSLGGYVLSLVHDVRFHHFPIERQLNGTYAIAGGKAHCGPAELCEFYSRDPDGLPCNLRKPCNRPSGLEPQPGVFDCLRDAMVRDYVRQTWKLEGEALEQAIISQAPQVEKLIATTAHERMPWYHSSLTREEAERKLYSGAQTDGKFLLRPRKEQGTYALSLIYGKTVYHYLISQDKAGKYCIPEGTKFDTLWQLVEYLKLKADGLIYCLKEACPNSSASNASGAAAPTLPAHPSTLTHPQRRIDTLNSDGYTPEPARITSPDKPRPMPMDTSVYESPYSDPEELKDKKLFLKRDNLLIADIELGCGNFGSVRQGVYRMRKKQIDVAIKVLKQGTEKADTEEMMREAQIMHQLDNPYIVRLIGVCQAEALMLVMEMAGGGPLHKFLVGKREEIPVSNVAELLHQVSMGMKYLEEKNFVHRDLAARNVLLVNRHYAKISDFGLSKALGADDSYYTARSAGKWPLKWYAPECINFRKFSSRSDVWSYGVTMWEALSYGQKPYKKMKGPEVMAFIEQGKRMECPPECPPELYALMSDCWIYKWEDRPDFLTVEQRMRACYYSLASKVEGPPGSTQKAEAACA
Measured Endpoint: IC50

Memo: CC(C)COC(=O)Nc1ccc(-c2cnc3c(-c4ccc(N5CCN(C)CC5)cc4)cnn3c2N)cc1 , reported IC50: > 10 µM

---

- Target Of Assay: Insulin-like growth factor 1 receptor (Homo sapiens, UniProt P08069)
- Sequence (P08069 31-736 limits assumed): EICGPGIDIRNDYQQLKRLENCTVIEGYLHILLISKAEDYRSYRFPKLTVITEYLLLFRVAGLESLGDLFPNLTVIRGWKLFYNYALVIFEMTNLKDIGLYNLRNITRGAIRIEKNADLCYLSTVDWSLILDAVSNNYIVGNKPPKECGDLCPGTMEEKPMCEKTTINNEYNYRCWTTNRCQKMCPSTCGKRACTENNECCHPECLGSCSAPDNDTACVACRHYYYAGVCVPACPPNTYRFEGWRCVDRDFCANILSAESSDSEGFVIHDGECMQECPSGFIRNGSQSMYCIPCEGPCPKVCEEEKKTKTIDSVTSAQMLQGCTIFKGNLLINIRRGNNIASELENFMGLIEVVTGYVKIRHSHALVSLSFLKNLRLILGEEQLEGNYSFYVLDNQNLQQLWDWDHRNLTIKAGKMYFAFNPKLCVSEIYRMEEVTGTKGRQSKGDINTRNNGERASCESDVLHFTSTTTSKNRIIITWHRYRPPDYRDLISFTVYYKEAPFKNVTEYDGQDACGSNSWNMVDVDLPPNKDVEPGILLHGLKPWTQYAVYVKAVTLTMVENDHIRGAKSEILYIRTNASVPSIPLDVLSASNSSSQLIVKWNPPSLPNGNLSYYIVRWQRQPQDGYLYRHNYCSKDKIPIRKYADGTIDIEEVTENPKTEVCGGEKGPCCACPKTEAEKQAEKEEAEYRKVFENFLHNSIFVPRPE
- Sequence (P08069 741-1367 limits assumed): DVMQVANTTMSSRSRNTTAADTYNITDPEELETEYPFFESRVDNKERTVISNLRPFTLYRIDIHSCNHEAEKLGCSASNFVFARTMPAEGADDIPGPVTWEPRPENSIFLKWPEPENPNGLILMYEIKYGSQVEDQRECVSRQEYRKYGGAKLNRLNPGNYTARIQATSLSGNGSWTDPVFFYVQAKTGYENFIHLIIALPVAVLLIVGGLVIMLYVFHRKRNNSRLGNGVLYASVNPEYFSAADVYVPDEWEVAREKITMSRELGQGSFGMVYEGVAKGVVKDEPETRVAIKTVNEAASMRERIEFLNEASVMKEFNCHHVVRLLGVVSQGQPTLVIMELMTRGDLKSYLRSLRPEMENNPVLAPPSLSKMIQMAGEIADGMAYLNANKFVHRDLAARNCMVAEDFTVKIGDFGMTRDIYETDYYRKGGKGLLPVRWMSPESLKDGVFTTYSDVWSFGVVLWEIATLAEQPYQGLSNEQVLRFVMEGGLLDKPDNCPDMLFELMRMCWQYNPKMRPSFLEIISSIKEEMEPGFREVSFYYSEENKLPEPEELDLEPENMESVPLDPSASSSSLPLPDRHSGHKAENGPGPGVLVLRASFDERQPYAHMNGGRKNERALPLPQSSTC
pIC50: −log10 of the molar value.
Measured Endpoint: pIC50

// compound CC(C)COC(=O)Nc1ccc(-c2cnc3c(-c4ccc(N5CCN(C)CC5)cc4)cnn3c2N)cc1 , assay Insulin-like growth factor 1 receptor (Homo sapiens, UniProt P08069), pIC50 value: < 5.00

---

Below are log10 IC50 values measured for Proto-oncogene tyrosine-protein kinase Src (Homo sapiens, UniProt P12931).
Hi team, quick reminder: these entries are log10 of IC50 (nM).

Worked set:
CC(C)COC(=O)Nc1ccc(-c2cnc3c(-c4cccc(N5CCN(C(=O)CN)CC5)c4)cnn3c2N)cc1    2.88
CN1CCN(c2ccc(-c3cnn4c(N)c(-c5cccc(O)c5)cnc34)cc2)CC1    0.30
CN1CCN(c2ccc(-c3cnn4c(N)c(-c5ccc(NC(=O)Oc6ccccc6)cc5)cnc34)cc2)CC1    2.60
CN1CCN(c2cccc(-c3cnn4c(N)c(-c5ccc(NC(=O)Oc6ccccc6)cc5)cnc34)c2)CC1    2.84
CC(C)COC(=O)Nc1ccc(-c2cnc3c(-c4ccc(N5CCN(C)CC5)cc4)cnn3c2N)cc1    2.82
CN1CCN(c2ccc(-c3cnn4c(N)c(-c5ccc(NC(=O)N(C)C6CCCCC6)cc5)cnc34)cc2)CC1    2.70
CN1CCN(c2cccc(-c3cnn4c(N)c(-c5ccc(NC(=O)NCC6CCCCC6)cc5)cnc34)c2)CC1    2.36
CN1CCN(c2cccc(-c3cnn4c(N)c(-c5ccc(NC(=O)CCC6CCCC6)cc5)cnc34)c2)CC1    2.13
Cc1cc(NC(=O)OCC(C)C)ccc1-c1cnc2c(-c3cccc(N4CCN(C)CC4)c3)cnn2c1N    2.66
CN1CCN(c2ccc(-c3cnn4c(N)c(-c5ccc(NC(=O)NCC6CCCCC6)cc5)cnc34)cc2)CC1    2.16

Bench note, Proto-oncogene tyrosine-protein kinase Src (Homo sapiens, UniProt P12931): CC(C)COC(=O)Nc1ccc(-c2cnc3c(-c4cccc(N5CCNCC5)c4)cnn3c2N)cc1 , log10 IC50 reads 2.81

GET /values?item= CN1CCN(c2ccc(-c3cnn4c(N)c(-c5ccc(O)cc5)cnc34)cc2)CC1 &system= Proto-oncogene tyrosine-protein kinase Src (Homo sapiens, UniProt P12931) returns log10 IC50: 2.60

Hey, Proto-oncogene tyrosine-protein kinase Src (Homo sapiens, UniProt P12931) data for CN1CCN(c2cccc(-c3cnn4c(N)c(-c5ccc(NC(=O)Nc6ccccc6Cl)cc5)cnc34)c2)CC1 : log10 IC50 came out at 3.00

---

- Test system: Liver microsomes
- Study Conditions: rat
- Description: Clearance in rat liver microsomes
Measured Endpoint: CL (µL/min)
Give a bare numeral; the unit µL/min is implied.

CC(C)COC(=O)Nc1ccc(-c2cnc3c(-c4cccc(N5CCN(C(=O)CN)CC5)c4)cnn3c2N)cc1    11.2
CC(C)COC(=O)Nc1ccc(-c2cnc3c(-c4cccc(N5CCNCC5)c4)cnn3c2N)cc1    29
CC(C)COC(=O)Nc1ccc(-c2cnc3c(-c4cccc(N5CCN(C)CC5)c4)cnn3c2N)cc1    612.5

// CL lookup, molecule = CC(C)COC(=O)Nc1ccc(-c2cnc3c(-c4ccc(N5CCN(C)CC5)cc4)cnn3c2N)cc1 , result: 161.2

Query CC(C)COC(=O)Nc1ccc(-c2cnc3c(-c4cccc(N5CCN(S(C)(=O)=O)CC5)c4)cnn3c2N)cc1 yields CL of 58.4

---

- Target Of Assay: Receptor tyrosine-protein kinase erbB-2 (Homo sapiens, UniProt P04626)
Measured Endpoint: IC50

GET /value?item= CC(C)COC(=O)Nc1ccc(-c2cnc3c(-c4ccc(N5CCN(C)CC5)cc4)cnn3c2N)cc1 &field=IC50 returns > 10 µM

---

- Target Of Assay: Tyrosine-protein kinase JAK3 (Homo sapiens)
- Sequence (P52333 whole entry): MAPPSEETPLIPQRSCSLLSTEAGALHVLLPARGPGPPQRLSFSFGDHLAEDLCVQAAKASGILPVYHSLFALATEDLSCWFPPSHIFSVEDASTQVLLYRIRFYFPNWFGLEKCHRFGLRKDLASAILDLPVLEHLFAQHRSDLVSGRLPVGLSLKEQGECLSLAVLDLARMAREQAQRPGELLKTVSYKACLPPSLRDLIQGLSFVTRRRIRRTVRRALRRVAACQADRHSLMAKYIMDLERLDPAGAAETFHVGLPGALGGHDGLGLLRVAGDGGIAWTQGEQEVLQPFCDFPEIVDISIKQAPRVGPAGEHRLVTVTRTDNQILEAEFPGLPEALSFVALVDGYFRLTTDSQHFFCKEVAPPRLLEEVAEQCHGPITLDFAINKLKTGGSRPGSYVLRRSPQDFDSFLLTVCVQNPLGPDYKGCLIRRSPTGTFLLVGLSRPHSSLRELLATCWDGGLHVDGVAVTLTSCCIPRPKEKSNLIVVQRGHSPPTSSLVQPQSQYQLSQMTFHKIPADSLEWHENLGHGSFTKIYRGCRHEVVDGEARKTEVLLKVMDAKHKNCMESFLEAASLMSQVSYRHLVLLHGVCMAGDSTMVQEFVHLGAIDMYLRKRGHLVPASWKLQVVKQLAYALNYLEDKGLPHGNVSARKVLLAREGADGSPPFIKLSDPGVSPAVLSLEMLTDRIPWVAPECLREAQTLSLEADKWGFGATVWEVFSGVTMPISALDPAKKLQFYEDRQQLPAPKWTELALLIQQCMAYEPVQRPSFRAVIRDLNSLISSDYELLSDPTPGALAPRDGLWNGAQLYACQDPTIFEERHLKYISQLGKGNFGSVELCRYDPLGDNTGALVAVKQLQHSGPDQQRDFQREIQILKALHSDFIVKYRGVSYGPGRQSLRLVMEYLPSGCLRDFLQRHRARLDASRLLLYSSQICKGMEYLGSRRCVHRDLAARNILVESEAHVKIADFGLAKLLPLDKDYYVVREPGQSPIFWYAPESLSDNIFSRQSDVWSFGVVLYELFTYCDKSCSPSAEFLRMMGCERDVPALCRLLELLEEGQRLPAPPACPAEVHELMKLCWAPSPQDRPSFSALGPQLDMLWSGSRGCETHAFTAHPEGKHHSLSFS
- Experimental Protocol: Inhibition of JAK3
Measured Endpoint: IC50

Reported IC50 of CC(C)COC(=O)Nc1ccc(-c2cnc3c(-c4ccc(N5CCN(C)CC5)cc4)cnn3c2N)cc1 : > 10 µM
